The reported measurements were obtained from ChEMBL document CHEMBL4177677.

assay: Terminal half life in human; type: ADME, organism-based; conditions: in vivo, read-out: beta t1/2
reported-metric: half-life

Input line: # lookup: half-life of CC(C(=O)O)c1ccc2oc(-c3ccc(Cl)cc3)nc2c1 (stereo unspecified)
Output line: 19 to 26 h

====

assay: Half life in human at 10 mg, tid; conditions: in vivo
reported-metric: half-life (h)
Enter your answer as a number in h; do not include the unit.

Input line: Tell me the measured half-life of COC(=O)C1=C(C)NC(C)=C(C(=O)OC)C1c1ccccc1[N+](=O)[O-] [NIFEDIPINE] , please.
Output line: 2

====

assay: Drug excretion in human kidney; details: urine
reported-metric: dose excreted

Input line: I have this compound here, NCCCC(O)(P(=O)(O)O)P(=O)(O)O [ALENDRONIC ACID] , and I need its recorded dose excreted.
Output line: 20 to 80%
